# Test system: TK-10 renal
# assay.name: NCI tumour cell line growth inhibition, 48 h; in the data active = GI50 below about 0.43 µM; inactive = the rest
Outcome codes: active, inactive

[
  {
    "compound": "C(=Nc1nc(SCc2ccccc2)nc2[nH]ncc12)c1cccs1",
    "assigned.label": "inactive"
  },
  {
    "compound": "S=C1Cc2c(-c3ccccc3)cc(-c3cccc(Cl)c3)nc2-c2ccccc2N1",
    "assigned.label": "inactive"
  },
  {
    "compound": "COCCN(Cc1ccc(F)cc1)c1ccc(CO)c(Cl)c1",
    "assigned.label": "active"
  },
  {
    "compound": "CSc1nc2nc(-c3ccccc3)c(C)c-2c2n1C(C)C(=O)N2 (stereo not given)",
    "assigned.label": "inactive"
  },
  {
    "compound": "COc1ccccc1CNCCN1C(=O)c2ccc3c4c(ccc(c24)C1=O)C(=O)N(CCNCc1ccccc1OC)C3=O",
    "assigned.label": "active"
  }
]
